- run-description: Single dose PK, phase 1, healthy European men
- Assay type: in vivo, human
- measurement-parameters: male, human, plasma, single SC 0.3 mg, geometric mean
Where a SMILES comes first, the peptide text is derived from it. [ ]: non-standard residue; d: D form. Arg(Me) = CNC(=N)NCCC[C@H](N)C(=O)O; Hyp = O=C(O)[C@@H]1C[C@@H](O)CN1; azaGly = NNC(=O)O
readout-name: CL/F (mL/min)
All answers are understood in mL/min, so give the number only.

Can you look up the measured CL/F of CC(=O)O.CNC(=N)NCCC[C@H](NC(=O)[C@H](CC(C)C)NC(=O)NNC(=O)[C@H](Cc1ccccc1)NC(=O)[C@@H](NC(=O)[C@H](CC(N)=O)NC(=O)[C@@H]1C[C@@H](O)CN1C(=O)[C@@H](Cc1ccc(O)cc1)NC(C)=O)[C@@H](C)O)C(=O)N[C@@H](Cc1c[nH]c2ccccc12)C(N)=O [API-MA] (Ac-[dY][Hyp]NTF[azaGly]L[Arg(Me)]W-NH2) for me?
378
